This collection of values is drawn from patent US11591363B2.

- Assay Comment: Solubility test, shake-flask in FaSSIF-V2
- Type: physicochemical
- Study Conditions: FaSSIF-V2, 25 °C, pH 6.5, fassif, thermodynamic from solid, FaSSIF-V2, pH 6.5, 25±1° C., shake-flask 24 h; value (SD); read-out: Log S (logarithm of S in mol/L) (converted)
Property Name: solubility at 24 h (µM)

INSERT INTO assay_data (smiles_string, result_value) VALUES
  ('CC[C@H](CC[C@@H](C)[C@H]1CC[C@H]2[C@@H]3CC=C4C[C@@H](O)CC[C@]4(C)[C@H]3CC[C@]12C)C(C)C', 0.851);
